Measured pIC50 by item
experiment: Antiproliferative activity against human SKOV3-MDR1-M6/6 cells after 48 hrs by SRB assay; format: functional, cell-based; settings: SKOV3-MDR1-M6/6, 48 h
pIC50: −log10 of the molar value.
measurement_kind: pIC50

>>> experimental_value("CCOC(=O)c1[nH]c(/C=N\\O)c(-c2ccc(OC)c(OC)c2OC)c1Br")
7.30
>>> experimental_value("CCOC(=O)c1[nH]c(Cl)c(-c2ccc(OC)c(OC)c2OC)c1Cl")
6.85
>>> experimental_value("CCOC(=O)c1[nH]c(Br)c(-c2ccc(OC)c(OC)c2OC)c1Br")
7.97
>>> experimental_value("CCOC(=O)c1[nH]c(C#N)c(-c2ccc(OC)c(OC)c2OC)c1Br")
7.37
>>> experimental_value("CCOC(=O)c1[nH]c(C=NO)c(-c2ccc(OC)c(OC)c2OC)c1Br (mixture of isomers)")
8.18
>>> experimental_value("CC(=O)O[C@H]1C(=O)[C@@]2(C)[C@H]([C@H](OC(=O)c3ccccc3)[C@]3(O)C[C@H](OC(=O)[C@H](O)[C@@H](NC(=O)c4ccccc4)c4ccccc4)C(C)=C1C3(C)C)[C@]1(OC(C)=O)CO[C@@H]1C[C@@H]2O")
5.63
>>> experimental_value("CCOC(=O)c1[nH]c(/C=N/O)c(-c2ccc(OC)c(OC)c2OC)c1Br")
7.38
